# protocol summary: in vivo rat PK study, aqueous liquid suspension with 1% HPMC (Example 9)
# run conditions: in vivo, po, 10 mg/kg, oral 10 mg/kg of Compound 1, 5 mL/kg, suspension in 1% HPMC
# AUC(0-inf) per entry
Give me the value, and tack the unit on after it.

{"compound": "Cc1ccc(NC(=O)[C@H]2CCCN(C(=O)c3c(C)cccc3F)[C@H]2c2ccc(NC3CCCC3)cc2)cc1C(F)(F)F.Cc1ccc(S(=O)(=O)O)cc1 [Tosylate Salt (Form I)]", "AUC(0-inf)": "3370 ng·h/mL"}

Now consider the entry below.
Q: Consider the compound shown here: Cc1ccc(NC(=O)[C@H]2CCCN(C(=O)c3c(C)cccc3F)[C@H]2c2ccc(NC3CCCC3)cc2)cc1C(F)(F)F.O=S(=O)(O)c1ccccc1 [Besylate Salt (Form I)] What is its recorded AUC(0-inf)?
A: 2220 ng·h/mL

====

# protocol summary: in vivo rat PK study, aqueous liquid suspension with 0.5% w/v Hydroxypropyl Cellulose and 0.5% w/v Poloxamer F-68 (Example 8)
# run conditions: oral 10 mg/kg of Compound 1, 5 mL/kg, suspension in 0.5% HPC / 0.5% Poloxamer F-68
Where a name gives a salt, the structure may show the parent alone.
# Cmax per entry
Give the number; µg/mL is assumed, so skip it.

{"compound": "Cc1ccc(NC(=O)[C@H]2CCCN(C(=O)c3c(C)cccc3F)[C@H]2c2ccc(NC3CCCC3)cc2)cc1C(F)(F)F [Edisylate Salt (Form I)]", "Cmax (µg/mL)": 0.435}

Q: Consider the compound shown here: Cc1ccc(NC(=O)[C@H]2CCCN(C(=O)c3c(C)cccc3F)[C@H]2c2ccc(NC3CCCC3)cc2)cc1C(F)(F)F [Camsylate Salt (Form I)] What is its recorded Cmax?
A: 0.738

Q: Consider the compound shown here: Cc1ccc(NC(=O)[C@H]2CCCN(C(=O)c3c(C)cccc3F)[C@H]2c2ccc(NC3CCCC3)cc2)cc1C(F)(F)F [Napsylate Salt (Form I)] What is its recorded Cmax?
A: 0.778

Q: Consider the compound shown here: Cc1ccc(NC(=O)[C@H]2CCCN(C(=O)c3c(C)cccc3F)[C@H]2c2ccc(NC3CCCC3)cc2)cc1C(F)(F)F [Napadisylate Salt (Form I)] What is its recorded Cmax?
A: 0.718

====

# protocol summary: in vivo rat PK study, aqueous liquid suspension with 1% HPMC (Example 9)
# run conditions: in vivo, po, 10 mg/kg, oral 10 mg/kg of Compound 1, 5 mL/kg, suspension in 1% HPMC, read-out: AUC0-t
measurement type: AUC0-t (µg·h/mL)
Give the number; µg·h/mL is assumed, so skip it.

{"molecule": "Cc1ccc(NC(=O)[C@H]2CCCN(C(=O)c3c(C)cccc3F)[C@H]2c2ccc(NC3CCCC3)cc2)cc1C(F)(F)F.Cc1ccc(S(=O)(=O)O)cc1 [Tosylate Salt (Form I)]", "measurement type": "AUC0-t", "value observed": 3.31}

Q: Consider the molecule shown here: Cc1ccc(NC(=O)[C@H]2CCCN(C(=O)c3c(C)cccc3F)[C@H]2c2ccc(NC3CCCC3)cc2)cc1C(F)(F)F.O=S(=O)(O)c1ccccc1 [Besylate Salt (Form I)] What is its recorded AUC0-t?
A: 2.17

====

# AUC0-t per entry
# protocol summary: in vivo rat PK study, aqueous liquid suspension with 0.5% w/v Hydroxypropyl Cellulose and 0.5% w/v Poloxamer F-68 (Example 8)
# run conditions: in vivo, po, 10 mg/kg, oral 10 mg/kg of Compound 1, 5 mL/kg, suspension in 0.5% HPC / 0.5% Poloxamer F-68, read-out: AUC0-t
Give the number; ng·h/mL is assumed, so skip it.

{"compound": "Cc1ccc(NC(=O)[C@H]2CCCN(C(=O)c3c(C)cccc3F)[C@H]2c2ccc(NC3CCCC3)cc2)cc1C(F)(F)F.Cc1ccc(S(=O)(=O)O)cc1 [Tosylate Salt (Form I)]", "measurement type": "AUC0-t", "value observed": 4040}

Q: Consider the compound shown here: Cc1ccc(NC(=O)[C@H]2CCCN(C(=O)c3c(C)cccc3F)[C@H]2c2ccc(NC3CCCC3)cc2)cc1C(F)(F)F.O=S(=O)(O)c1ccccc1 [Besylate Salt (Form I)] What is its recorded AUC0-t?
A: 2510
